Every entry's value here was drawn from patent US20180305450A1.

Listed binders paired with reported kon
biological target: T1, recombinant biotinylated human PAR2 extracellular domain (residues 1-75), N-terminal AviTag, C-terminal Flag … (human, UniProt P55085 26-75, biotin on the AviTag (enzymatic biotinylation)); test: Biacore SPR 25 C, pH 7.4
T1 construct: also called Bio-human-PAR2 ECD; human PAR2 ECD; not shown: N-terminal AviTag (Avidity LLC); C-terminal Flag and poly Histidine tags
T1 sequence (P55085 26-75): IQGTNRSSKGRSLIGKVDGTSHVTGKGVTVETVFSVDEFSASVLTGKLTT
Provide only the numeric value, understood in M⁻¹ s⁻¹.

// below: answered binders
binder="PaB670136 Fab (Fab, V domains shown, Fab; also called ZZ1RUF-A01) VH: EVQLLESGGGLVQPGGSLRLSCAASGFTFSSYAMNWVRQAPGKGLEWVSTISYHGHHISYADSHHHRFTISRDNSKNTLYLQMNSLRAEDTAVYYCARIHHDPMDHWGQGTLVTVSS VL: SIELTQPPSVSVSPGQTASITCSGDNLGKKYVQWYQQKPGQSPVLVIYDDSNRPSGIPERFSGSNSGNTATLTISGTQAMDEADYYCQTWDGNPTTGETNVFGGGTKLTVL" recorded_value=5.17e+06
binder="Par0067 Fab (Fab, V domains shown, Fab; also called ZZ15D2-D02) VH: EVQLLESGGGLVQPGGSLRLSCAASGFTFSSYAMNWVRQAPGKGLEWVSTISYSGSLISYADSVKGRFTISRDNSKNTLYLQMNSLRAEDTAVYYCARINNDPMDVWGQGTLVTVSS VL: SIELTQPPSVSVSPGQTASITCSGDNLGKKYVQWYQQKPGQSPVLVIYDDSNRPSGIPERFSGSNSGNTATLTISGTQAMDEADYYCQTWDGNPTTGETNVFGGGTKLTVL" recorded_value=6.66e+06

We next turn to a different binder, shown below.
Request: Let me know recorded kon for PaB670076 Fab (Fab, V domains shown, Fab; also called ZZ1NHH-F09) VH: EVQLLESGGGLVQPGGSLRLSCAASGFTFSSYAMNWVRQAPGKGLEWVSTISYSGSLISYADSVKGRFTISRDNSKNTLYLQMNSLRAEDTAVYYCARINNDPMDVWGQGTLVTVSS VL: SIELTQPPSVSVSPGQTASITCSGDNLGKKYVQWYQQKPGQSPVLVIYDDSNRPSGIPERFSGSNSGNTATLTISGTQAMDEADYYCHTWDHHHTTGEHNVFGGGTKLTVL , thanks.
Result: 5.84e+06
